Entries and their measured normalized growth follow.
# assay_comment: chemical genetic growth profiling, strain panel (AID 1159580);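 note: tested at 20 µM; growth read once vehicle control cultures reached saturation at 30 °C; 1 = growth at the plate median or of vehicle wells; lower values mean less growth of the strain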
# measurement_setup: S. cerevisiae deletion strains, growth OD, locus YNL153C, strain GIM3, active compounds read low
Hit rate of the full screen: of about 5,500 compounds, about 2,000 (36%) were called active. Inconclusive results (about 18%) are left out. Some of the results follow.
quantity_name: normalized growth

compound: N#Cc1ccc(Oc2ccc(Cl)cc2)nc1
obs_value: 0.986
--
compound: O=[N+]([O-])c1ccc(-c2nn[nH]n2)cc1
obs_value: 0.995
--
compound: O/N=C\c1sccc1Oc1ccccc1
obs_value: 0.905
--
compound: Cc1ccc(N(CC2=NCCN2)c2cccc(O)c2)cc1
obs_value: 0.983
--
compound: CC(=O)Oc1cc2c(c(C)c1OC(C)=O)CC1OC13C2(C)CCC1(C)C2CC(C)(C(=O)O)CCC2(C)CCC13C (stereo unspecified)
obs_value: 1
--
compound: COC(=O)CSCCc1nc(-c2ccc([N+](=O)[O-])cc2)cs1
obs_value: 1.01

---

# assay_comment: chemical genetic growth profiling, strain panel (AID 1159580)
# measurement_setup: S. cerevisiae deletion strains, growth OD, locus YDL101C, strain DUN1, active compounds read low
Out of some 5,500 compounds screened, about 2,000 (36%) were called active. About 18% were inconclusive and are not listed. The list shows a part of the results.

compound: COc1cc(/C=C/C=O)cc(OC)c1OC
normalized growth: 1.02
//
compound: COc1ccc2c(c1OC)OC[C@@H](c1ccc(OC)c(OC)c1OC)C2
normalized growth: 1.01
//
compound: CCOC(=O)c1cnc2nc(SC)nn2c1N
normalized growth: 0.955
//
compound: CN(C)/C=C1/C(=O)NN=C1CSc1ccccn1
normalized growth: 1.03
//
compound: S=C(N/N=C\c1cccs1)NC1CC2CCC1C2 (configuration not stated)
normalized growth: 0.952
//
compound: CC1=CC(=O)C2=C(C)CC(O)C3C(C)C(=O)OC3C12 (configuration not stated)
normalized growth: 1.01
//
compound: COc1cc(C=Nc2ccc(F)cc2)cc(OC)c1OC
normalized growth: 1
//
compound: COc1ccc([C@H]2COc3c(ccc(O)c3OC)C2)c(OC)c1O
normalized growth: 0.978
//
compound: N#Cc1ccc(Oc2ccc(Cl)cc2)nc1
normalized growth: 0.944
//
compound: COC1(C)CCC2OC2(C)CCC2C1CC2(C)C (configuration not stated)
normalized growth: 1.02
//
compound: CCOC(=O)c1cnc2c(c(C)nn2C)c1Sc1nnc(SC)s1
normalized growth: 0.911
//
compound: COc1cc(/C=N\NC(=S)NC2CC3CCC2C3)cc(OC)c1OC (configuration not stated)
normalized growth: 1

---

# assay_comment: chemical genetic growth profiling, strain panel (AID 1159580)
# measurement_setup: S. cerevisiae deletion strains, growth OD, locus YLR102C, strain apc9, active compounds read low
The campaign covered roughly 5,500 compounds. About 2,000 (36%) were called active. Not shown: some 18% with an inconclusive outcome. The list shows a part of the results.
Entries and their measured normalized growth follow.

compound: COc1ccc(C(=O)c2ccc(O)cc2)c(O)c1O
normalized growth: 0.966

compound: CCOC([O-])=Nc1c[n+](N2CCOCC2)no1
normalized growth: 0.999

compound: CC(=O)NO
normalized growth: 0.996

compound: Cc1cc(=O)n(-c2ccccc2)n1C
normalized growth: 0.991

compound: CCOc1ccc(C(=O)c2cc(O)c(OC)c(OC)c2O)cc1
normalized growth: 1.01

compound: COC1(C)CCC2OC2(C)CCC2C1CC2(C)C (centres undefined)
normalized growth: 0.997

compound: NC(=O)NO
normalized growth: 1

compound: Cc1ccc(N(CC2=NCCN2)c2cccc(O)c2)cc1
normalized growth: 1.01

compound: COc1ccc(C(=O)O)c(O)c1OC
normalized growth: 0.996

compound: CC1(C)C=Cc2cc3ccc(=O)oc3cc2O1
normalized growth: 0.969

compound: CN1C(=O)CCS(=O)(=O)C1c1ccc(Cl)cc1 (centres undefined)
normalized growth: 1.01

compound: O=C(O)[C@H](O)[C@@](O)(Cc1ccc(O)cc1)C(=O)O
normalized growth: 0.994

compound: COc1ccc(C(=O)c2ccccc2)c(O)c1O
normalized growth: 0.974

compound: CCOc1ccc(NC(C)=O)cc1
normalized growth: 0.976

---

Entries and their measured normalized growth follow.
# assay_comment: chemical genetic growth profiling, strain panel (AID 1159580);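 note: tested at 20 µM; growth read once vehicle control cultures reached saturation at 30 °C; 1 = growth at the plate median or of vehicle wells; lower values mean less growth of the strain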
# measurement_setup: S. cerevisiae deletion strains, growth OD, locus YLR102C, strain apc9, active compounds read low
About 2,000 (36%) of roughly 5,500 compounds were called active. Another 18% or so got no clear call; they are omitted. The list shows a part of the results.
quantity_name: normalized growth

compound: NC[C@H]1O[C@H](O[C@H]2[C@H](O)[C@@H](O[C@H]3O[C@H](CO)[C@@H](O)[C@H](N)[C@H]3O)[C@H](N)C[C@@H]2N)[C@H](N)C[C@@H]1O
quantity_name: normalized growth
obs_value: 1.01
--
compound: CC(=O)[O][Hg][c]1ccccc1
quantity_name: normalized growth
obs_value: 0.0618
--
compound: CC(=O)OCC(=O)[C@@]12OC3(CCCC3)O[C@@H]1CC1C3CCC4=CC(=O)C=C[C@]4(C)[C@@]3(F)[C@@H](O)C[C@@]12C (some centres not stated)
quantity_name: normalized growth
obs_value: 0.992
--
compound: COc1c2c(cc3c1OCO3)C13C=C[C@H](OC)CC1N(C2)CC3O (some centres not stated)
quantity_name: normalized growth
obs_value: 0.988
--
compound: NC[C@H]1O[C@H](O[C@H]2C(O[C@@H]3O[C@H](CO)[C@@H](O)[C@H]3O)[C@@H](O)[C@H](N)C[C@@H]2N)[C@H](N)[C@@H](O)[C@@H]1O (some centres not stated)
quantity_name: normalized growth
obs_value: 0.999
--
compound: O=c1oc2c(O)c(O)cc3c(=O)oc4c(O)c(O)cc1c4c23
quantity_name: normalized growth
obs_value: 0.933
--
compound: COc1cc(NS(=O)(=O)c2ccc(N)cc2)ncn1
quantity_name: normalized growth
obs_value: 0.986

---

Entries and their measured normalized growth follow.
# assay_comment: chemical genetic growth profiling, strain panel (AID 1159580);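 note: tested at 20 µM; growth read once vehicle control cultures reached saturation at 30 °C; 1 = growth at the plate median or of vehicle wells; lower values mean less growth of the strain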
# measurement_setup: S. cerevisiae deletion strains, growth OD, locus YDR069C, strain doa4, active compounds read low
The campaign covered roughly 5,500 compounds. About 2,000 (36%) were called active. About 18% were inconclusive and are not listed. This is one part of the list. Where a SMILES comes first, the peptide text is derived from it. [ ]: non-standard residue; d: D form. Orn = NCCC[CH](N)C(=O)O
quantity_name: normalized growth

molecule: CC(=O)OC[C@H]1O[C@@H](Oc2cc(OC(C)=O)c3c(=O)cc(-c4ccc(OC(C)=O)cc4)oc3c2)[C@H](OC(C)=O)[C@@H](OC(C)=O)[C@@H]1OC(C)=O
quantity_name: normalized growth
obs_value: 0.953 (inactive)
--
molecule: CC(C)CC1NC(=O)C(CCCN)NC(=O)C(C(C)C)NC(=O)C2CCCN2C(=O)C(Cc2ccccc2)NC(=O)C(CC(C)C)NC(=O)C(CCCN)NC(=O)C(C(C)C)NC(=O)C2CCCN2C(=O)C(Cc2ccccc2)NC1=O (configuration not stated) (cyclo(FPV[Orn]LFPV[Orn]L); configuration not given here)
quantity_name: normalized growth
obs_value: 0.905 (inactive)

---

# assay_comment: chemical genetic growth profiling, strain panel (AID 1159580);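 note: tested at 20 µM; growth read once vehicle control cultures reached saturation at 30 °C; 1 = growth at the plate median or of vehicle wells; lower values mean less growth of the strain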
# measurement_setup: S. cerevisiae deletion strains, growth OD, locus YJL092W, strain hpr5
In all, about 5,500 compounds went through this assay and about 2,000 (36%) were called active. About 18% were inconclusive and are not listed. Rule as the data show it: active = normalized growth mostly below about 0.91 (no sharp cut-off); inconclusive = no clear call, values can overlap the other calls; inactive = mostly above about 0.92. The list shows a part of the results. *1 amine or outer side, *2 acyl side, *3 side chain or, on linkers, in order; H or OH if unused. Where a SMILES comes first, the peptide text is derived from it. Bridges are numbered along the chain shown (N, C = ends). [ ]: non-standard residue; d: D form. The star is where a group is joined. ξ: configuration not given here. ΔAla(E,3-NHCONH2) = NC(=O)N/C=C(/N)C(=O)O; X2 = NC1=NCCC(C(N[*:1])C(=O)[*:2])N1; ξβ3hOrn = NCCCC(N)CC(=O)*; Dap = NC[CH](N)C(=O)O
Outcome codes: active, inactive

compound: COc1ccc([C@H]2COc3c(ccc(O)c3OC)C2)c(OC)c1O
assigned_class: inactive
//
compound: OC(c1cc(C(F)(F)F)nc2c(C(F)(F)F)cccc12)C1CCCCN1 (stereo not drawn)
assigned_class: inactive
//
compound: Cc1cc(C(C)(C)C)cc(C)c1CC1=NCCN1
assigned_class: inactive
//
compound: CC1=C(O)C(=O)C=C2C1=CC=C1[C@@]2(C)CC[C@@]2(C)[C@@H]3C[C@](C)(C(=O)O)CC[C@]3(C)CC[C@]12C
assigned_class: active
//
compound: NCCCC(N)CC(=O)NCC1NC(=O)C(CO)NC(=O)C(N)CNC(=O)C(C2CCN=C(N)N2)NC(=O)/C(=C\NC(N)=O)NC1=O (stereo not drawn) (H-[Dap]S[Dap](ξβ3hOrn)[ΔAla(E,3-NHCONH2)][X2]; lactam 1-C; configuration not given here)
assigned_class: inactive
//
compound: CC(=O)NS(=O)(=O)c1ccc(NC(=O)c2ccccc2C(=O)O)cc1
assigned_class: inactive
//
compound: COc1c2c(cc3c1OCO3)C13C=C[C@H](OC)CC1N(C2)CC3O (stereo partly drawn)
assigned_class: inactive
//
compound: c1ccc([C@H]2CN3CCSC3=N2)cc1
assigned_class: inactive
//
compound: CN(C)C(=N)N=C(N)N
assigned_class: inactive
//
compound: Cc1cc(C(C)(C)C)c(O)c(C)c1CC1=NCCN1
assigned_class: inactive
//
compound: COc1cc(-c2coc3cc(O[C@@H]4O[C@H](CO)[C@@H](O)[C@H](O)[C@H]4O)c(OC)c(O)c3c2=O)cc(O)c1OC
assigned_class: inactive
//
compound: COc1cc(NS(=O)(=O)c2ccc(N)cc2)ncn1
assigned_class: inactive
//
compound: COc1cc2c(cc1OC)[C@@H]1C(=O)c3ccc4c(c3O[C@@H]1CO2)CC(C(C)C)O4 (stereo partly drawn)
assigned_class: inactive
//
compound: O=C(CCc1ccc(O)cc1)c1c(O)cc(O)cc1O[C@@H]1O[C@H](CO)[C@@H](O)[C@H](O)[C@H]1O
assigned_class: inactive
//
compound: CC(=O)OCC1=C(C(=O)O)N2C(=O)[C@@H](NC(=O)CCCC(N)C(=O)O)C2SC1 (stereo partly drawn)
assigned_class: inactive
//
compound: CC1(C)C(=O)[C@@H]2C[C@@]3(O)C4=CC(=O)O[C@@H](c5ccoc5)[C@]4(C)CCC3[C@@](C)(C2=O)[C@H]1CC(=O)O (stereo partly drawn)
assigned_class: inactive
//
compound: CC(=O)Oc1cc2c(c(C)c1OC(C)=O)CC1OC13C2(C)CCC1(C)C2CC(C)(C(=O)O)CCC2(C)CCC13C (stereo not drawn)
assigned_class: inactive
//
compound: C=C(C)[C@H]1Cc2c(ccc3c2O[C@@H]2COc4cc(OC)c(OC)cc4[C@@H]2C3=O)O1
assigned_class: inactive
